For each of the compounds below, state its Test A rating (% disease control).
Test system: Botrytis cinerea
assay-procedure: Test A: tomato seedlings sprayed with test suspension, inoculated with Botrytis cinerea (gray mold), visual disease rating
Format: in vivo
protocol-conditions: Cmpd. No. unmarked; 100 = 100% disease control, 0 = no control relative to controls
Form entry: value (%) — number only.

Query: Given the entry CC(c1ncc(-n2ccc(C(F)(F)F)n2)cc1Cl)N(C(=O)c1cn(C)nc1C(F)F)C1CC1 (stereo not drawn) [compound 17] , report its measured Test A rating (% disease control).
Response: 0

Query: Given the entry Cn1cc(C(=O)N(Cc2cccc(-n3ccc(C(F)(F)F)n3)c2Cl)C2CC2)c(C(F)F)n1 [compound 38] , report its measured Test A rating (% disease control).
Response: 14

Query: Given the entry Cn1cc(C(=O)N(Cc2c(Cl)cc(-n3cccn3)cc2Cl)C2CC2)c(C(F)F)n1 [compound 24] , report its measured Test A rating (% disease control).
Response: 0

====

For each of the molecules below, state its Test E rating (% disease control).
System: Erysiphe graminis f. sp. tritici
assay-procedure: Test E: wheat seedlings sprayed with test suspension, inoculated with Erysiphe graminis f. sp. tritici (wheat powdery mildew), visual disease rating
Format: in vivo
protocol-conditions: Cmpd. No. marked '**' (other test rate; meaning of mark not shown)
Form entry: value (%) — number only.

Query: Please state recorded Test E rating (% disease control) (tested on Erysiphe graminis f. sp. tritici) of CC(C)c1cc(CN(C(=O)c2c(C(F)F)nn(C)c2F)C2CC2)ccc1-n1ccc(C(F)(F)F)n1
Response: 69

Query: Please state recorded Test E rating (% disease control) (tested on Erysiphe graminis f. sp. tritici) of Cc1cc(CN(C(=O)c2c(C(F)F)nn(C)c2F)C2CC2)ccc1-n1ccc(C(F)(F)F)n1
Response: 69

Query: Please state recorded Test E rating (% disease control) (tested on Erysiphe graminis f. sp. tritici) of Cn1cc(C(=O)N(Cc2cc(-n3ccc(C(F)(F)F)n3)ncc2Cl)C2CC2)c(C(F)F)n1
Response: 0

Query: Please state recorded Test E rating (% disease control) (tested on Erysiphe graminis f. sp. tritici) of Cn1nc(C(F)F)c(C(=O)N(Cc2ccc(-n3ccc(C(F)(F)F)n3)c(Br)c2)C2CC2)c1F
Response: 84

Query: Please state recorded Test E rating (% disease control) (tested on Erysiphe graminis f. sp. tritici) of Cn1nc(C(F)F)c(C(=O)N(Cc2ccc(-n3ccc(C(F)(F)F)n3)c(Cl)c2)C2CC2)c1F
Response: 89

Query: Please state recorded Test E rating (% disease control) (tested on Erysiphe graminis f. sp. tritici) of CC(c1cccc(-n2ccc(C(F)(F)F)n2)c1Cl)N(C(=O)c1cn(C)nc1C(F)F)C1CC1 (centres unmarked)
Response: 64

Query: Please state recorded Test E rating (% disease control) (tested on Erysiphe graminis f. sp. tritici) of Cc1cc(-n2ccc(C(F)(F)F)n2)cnc1CN(C(=O)c1c(C(F)F)nn(C)c1F)C1CC1
Response: 81

Query: Please state recorded Test E rating (% disease control) (tested on Erysiphe graminis f. sp. tritici) of CC(c1ncc(-n2ccc(C(F)(F)F)n2)cc1Cl)N(C(=O)c1c(C(F)F)nn(C)c1F)C1CC1 (centres unmarked)
Response: 94

====

Tested on: Septoria tritici
assay-procedure: Test C: wheat seedlings sprayed with test suspension, inoculated with Septoria tritici (wheat leaf blotch), visual disease rating
Assay type: in vivo
protocol-conditions: Cmpd. No. marked '#' (other test rate; meaning of mark not shown)
For each of the compounds below, state its Test C rating (% disease control).
Form entry: value (%) — number only.

Query: Please state recorded Test C rating (% disease control) (tested on Septoria tritici) of CC(c1ccc(-n2ccc(C(F)(F)F)n2)nc1)N(C(=O)c1cn(C)nc1C(F)F)C1CC1 (centres unmarked)
Response: 93

Query: Please state recorded Test C rating (% disease control) (tested on Septoria tritici) of Cn1cc(C(=O)N(Cc2ccc(-n3ccc(-c4ccccc4)n3)cn2)C2CC2)c(C(F)F)n1
Response: 88

Query: Please state recorded Test C rating (% disease control) (tested on Septoria tritici) of Cn1cc(C(=O)N(Cc2cccc(-n3ccc(C(F)(F)F)n3)c2)C2CC2)c(C(F)F)n1
Response: 100

Query: Please state recorded Test C rating (% disease control) (tested on Septoria tritici) of Cn1cc(C(=O)N(Cc2ccc(-n3ccc(Cl)n3)cn2)C2CC2)c(C(F)F)n1
Response: 80

Query: Please state recorded Test C rating (% disease control) (tested on Septoria tritici) of Cn1cc(C(=O)N(Cc2ccc(-n3cc(Cl)cn3)cn2)C2CC2)c(C(F)F)n1
Response: 67

====

Test system: Erysiphe graminis f. sp. tritici
assay-procedure: Test E: wheat seedlings sprayed with test suspension, inoculated with Erysiphe graminis f. sp. tritici (wheat powdery mildew), visual disease rating
Type: in vivo
protocol-conditions: Cmpd. No. marked '**' (other test rate; meaning of mark not shown)
For each of the compounds below, state its Test E rating (% disease control).
Form entry: value (%) — number only.

Query: Given the entry CC(c1ncc(-n2cccn2)cc1Cl)N(C(=O)c1c(C(F)F)nn(C)c1F)C1CC1 (racemic) , report its measured Test E rating (% disease control).
Response: 79

Query: Given the entry Cn1nc(C(F)F)c(C(=O)N(Cc2ncc(-n3ccc(C(F)(F)F)n3)cc2Cl)C2CC2)c1F , report its measured Test E rating (% disease control).
Response: 87

Query: Given the entry Cn1nc(C(F)F)c(C(=O)N(Cc2ccc(-n3ccc(C(F)(F)F)n3)c(C(F)(F)F)c2)C2CC2)c1F , report its measured Test E rating (% disease control).
Response: 27

Query: Given the entry CC(c1ncc(-n2cc(Cl)cn2)cc1Cl)N(C(=O)c1c(C(F)F)nn(C)c1F)C1CC1 (racemic) , report its measured Test E rating (% disease control).
Response: 94

Query: Given the entry C=C(C)c1cc(CN(C(=O)c2c(C(F)F)nn(C)c2F)C2CC2)ccc1-n1ccc(C(F)(F)F)n1 , report its measured Test E rating (% disease control).
Response: 13

Query: Given the entry Cn1nc(C(F)F)c(C(=O)N(Cc2ncc(-n3ccc(C(F)(F)F)n3)cc2Br)C2CC2)c1F , report its measured Test E rating (% disease control).
Response: 73

Query: Given the entry Cn1nc(C(F)F)c(C(=O)N(Cc2ccc(-n3ccc(C(F)(F)F)n3)cc2Cl)C2CCC2)c1F , report its measured Test E rating (% disease control).
Response: 0

Query: Given the entry COc1cc(CN(C(=O)c2c(C(F)F)nn(C)c2F)C2CC2)ccc1-n1ccc(C(F)(F)F)n1 , report its measured Test E rating (% disease control).
Response: 73

Query: Given the entry Cn1nc(C(F)F)c(C(=O)N(Cc2ncc(-n3ccc(C(F)(F)F)n3)cc2C2CC2)C2CC2)c1F , report its measured Test E rating (% disease control).
Response: 92

Query: Given the entry CC(c1ncc(-n2cc(Br)cn2)cc1Cl)N(C(=O)c1c(C(F)F)nn(C)c1F)C1CC1 (stereo not drawn) , report its measured Test E rating (% disease control).
Response: 92

Query: Given the entry CC(c1ncc(-n2ccc(-c3ccccc3)n2)cc1Cl)N(C(=O)c1c(C(F)F)nn(C)c1F)C1CC1 (racemic) , report its measured Test E rating (% disease control).
Response: 86

Query: Given the entry Cn1nc(C(F)F)c(C(=O)N(Cc2cc(-n3ccc(C(F)(F)F)n3)ncc2Cl)C2CC2)c1F , report its measured Test E rating (% disease control).
Response: 0

Query: Given the entry Cn1cc(C(=O)N(Cc2ccnc(-n3ccc(C(F)(F)F)n3)c2Cl)C2CC2)c(C(F)F)n1 , report its measured Test E rating (% disease control).
Response: 0

Query: Given the entry Cn1nc(C(F)F)c(C(=O)N(Cc2ccc(-n3ccc(C(F)(F)F)n3)cc2Cl)C2COC2)c1F , report its measured Test E rating (% disease control).
Response: 0

Query: Given the entry CC(c1ncc(-n2ccc(Br)n2)cc1Cl)N(C(=O)c1c(C(F)F)nn(C)c1F)C1CC1 (racemic) , report its measured Test E rating (% disease control).
Response: 81

====

System: Botrytis cinerea
assay-procedure: Test A: tomato seedlings sprayed with test suspension, inoculated with Botrytis cinerea (gray mold), visual disease rating
Assay type: in vivo
protocol-conditions: Cmpd. No. marked '#' (other test rate; meaning of mark not shown)
Source text: General protocol for preparing test suspensions for Tests A-E: the test compounds were first dissolved in acetone in an amount equal to 3% of the final volume and then suspended at the desired concentration (in ppm) in acetone and purified water (50/50 mix by volume) containing 250 ppm of the surfactant Trem® 014 (polyhydric alcohol esters). […]
For each of the compounds below, state its Test A rating (% disease control).
Form entry: value (%) — number only.

Query: Given the entry CC(c1ccc(-n2ccc(C(F)(F)F)n2)nc1)N(C(=O)c1cn(C)nc1C(F)F)C1CC1 (centres unmarked) , report its measured Test A rating (% disease control).
Response: 0

Query: Given the entry Cn1cc(C(=O)N(Cc2cccc(-n3ccc(C(F)(F)F)n3)c2)C2CC2)c(C(F)F)n1 , report its measured Test A rating (% disease control).
Response: 39

Query: Given the entry Cn1cc(C(=O)N(Cc2ccc(-n3cc(Cl)cn3)cn2)C2CC2)c(C(F)F)n1 , report its measured Test A rating (% disease control).
Response: 0

Query: Given the entry Cn1cc(C(=O)N(Cc2ccc(-n3ccc(-c4ccccc4)n3)cn2)C2CC2)c(C(F)F)n1 , report its measured Test A rating (% disease control).
Response: 0

Query: Given the entry Cn1cc(C(=O)N(Cc2ccc(-n3ccc(Cl)n3)cn2)C2CC2)c(C(F)F)n1 , report its measured Test A rating (% disease control).
Response: 0
